- Test system: Chordin-like protein 2 (CHRDL2)
- EXPERIMENT_DESCRIPTION: CHRDL2 small-molecule binders, primary screen, biochemical, small-molecule microarray, 635 nm fluorescence (AID 1126);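 also: printed compound slides probed with Chrdl2 protein at 4 µg/mL for 1 h at 4 C; score merges 667 nm emission intensity with signal to noise over three replicate slides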
- EXPERIMENTAL_CONTEXT: small-molecule microarray binding, fluorescence 635 nm; higher = more signal
Let's look at some compounds and their measured composite z-score.
Give only the figure.

Here is how some compounds turned out for composite z-score.
{"COMPOUND": "CCCN1C(=O)[C@@]2(CCS(=O)(=O)c3ccccc3)N=C(c3ccc(OCCCO)cc3)O[C@H]2c2ccccc21", "PROPERTY_NAME": "composite z-score", "MEASUREMENT": 0.637}
{"COMPOUND": "C=CC[C@]1(C(=O)O)N=C(c2ccc(OCCCO)cc2)O[C@H]1c1ccccc1", "PROPERTY_NAME": "composite z-score", "MEASUREMENT": -0.916}
{"COMPOUND": "O=C1OCCC=C[C@H]2OC34C=CCN(Cc5ccccc5)C(=O)[C@H]3N(CCO)C(=O)[C@@H]4C12 (stereo partly specified)", "PROPERTY_NAME": "composite z-score", "MEASUREMENT": -0.849}
{"COMPOUND": "COC(=O)C1=CC(c2ccc(CO)cc2)=CC(c2cccs2)N(Cc2cccc(OC(F)(F)F)c2)C=C1C(=O)OC (stereo unspecified)", "PROPERTY_NAME": "composite z-score", "MEASUREMENT": -0.602}
{"COMPOUND": "CO[C@]12C=C(Br)[C@@H](C[C@@H]1c1ccccc1)[C@@]1(CO1)C2=O", "PROPERTY_NAME": "composite z-score", "MEASUREMENT": 0.77}

Here's the next entry for you.
Q: # return recorded composite z-score for entry Cc1ccccc1C(O)C1C=CC2C(=O)N(c3ccccc3)C(=O)C2N1Nc1ccc(C#N)cc1 (stereo unspecified)
Result: 0.632
